Biological target: prostaglandin synthetase (Ovis aries)
Construct: sheep vesicular gland microsomal preparation
Sequence (P05979 25-600): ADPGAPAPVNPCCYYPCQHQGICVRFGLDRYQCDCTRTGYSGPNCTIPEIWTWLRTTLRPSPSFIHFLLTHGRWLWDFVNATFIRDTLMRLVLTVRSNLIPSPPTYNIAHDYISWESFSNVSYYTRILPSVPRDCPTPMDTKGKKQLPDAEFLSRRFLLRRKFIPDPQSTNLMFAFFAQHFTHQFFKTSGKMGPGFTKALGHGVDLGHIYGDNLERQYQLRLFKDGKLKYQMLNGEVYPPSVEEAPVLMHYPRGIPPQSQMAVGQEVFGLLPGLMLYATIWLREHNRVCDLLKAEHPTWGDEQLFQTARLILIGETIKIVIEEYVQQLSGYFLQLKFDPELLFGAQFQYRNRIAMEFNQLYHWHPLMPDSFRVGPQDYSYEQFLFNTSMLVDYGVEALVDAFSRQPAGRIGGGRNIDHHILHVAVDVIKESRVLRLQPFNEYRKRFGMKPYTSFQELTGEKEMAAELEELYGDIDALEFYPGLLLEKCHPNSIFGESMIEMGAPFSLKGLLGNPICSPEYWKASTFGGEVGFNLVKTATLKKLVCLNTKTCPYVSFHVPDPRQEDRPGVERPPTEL
Assay: Inhibition of prostaglandin synthesis, sheep vesicular gland microsomal preparation, oxygen electrode
Settings: sheep vesicular gland microsomes, pH 8.0, inhibitor added 1 minute before arachidonate; oxygen uptake; read-out: [I]50 Values for Inhibition of Prostaglandin Synthesis
pIC50: −log10 of the molar value.
OBSERVATION_TYPE: pIC50

SMILES_STRING | TARGET_UNDER_TEST | VALUE_REPORTED
Cc1ccccc1COc1ccccc1O | prostaglandin synthetase (Ovis aries) | 5.33
Oc1ccccc1OCc1cccc(Cl)c1 | prostaglandin synthetase (Ovis aries) | 5.48
Oc1ccccc1OCc1ccccc1 | prostaglandin synthetase (Ovis aries) | 5.28

All figures here come from patent US4244956A.
